Exercise: state measured MIC for each of the compounds provided.
tested on: Staphylococcus aureus; test: Antibacterial activity against methicillin-resistant Staphylococcus aureus 86 assessed as bacterial growth inhibition in presence of 50 ug/ml calcium ions by CLSI protocol based broth microdilution method; assay type: functional

Q. Look up MIC with Staphylococcus aureus for this compound: "CCCCCCCCCC(=O)N[C@@H](Cc1c[nH]c2ccccc12)C(=O)N[C@@H](CC(N)=O)C(=O)N[C@@H](CC(=O)O)C(=O)N[C@@H]1C(=O)NCC(=O)N[C@@H](Cc2ccccc2)C(=O)N[C@@H](CC(=O)O)C(=O)N[C@H](C)C(=O)N[C@@H](CC(=O)O)C(=O)NCC(=O)N[C@H](CO)C(=O)N[C@@H]([C@@H](C)CC(=O)O)C(=O)N[C@@H](CC(=O)c2ccccc2N)C(=O)O[C@@H]1C"
A. 16 µg/mL

Q. Now try "CCCCCCCCCC(=O)N[C@@H](Cc1c[nH]c2ccccc12)C(=O)N[C@@H](CC(N)=O)C(=O)N[C@@H](CC(=O)O)C(=O)N[C@@H]1C(=O)NCC(=O)N[C@@H](CCCN)C(=O)N[C@@H](CC(=O)O)C(=O)N[C@H](C)C(=O)N[C@@H](CC(=O)O)C(=O)N(C)CC(=O)N[C@H](CO)C(=O)N[C@@H]([C@@H](C)CC(=O)O)C(=O)N[C@@H](CC(=O)c2ccccc2N)C(=O)O[C@@H]1C" .
A. ≥ 32 µg/mL

Q. Now try "CCCCCCCCCC(=O)N[C@@H](Cc1c[nH]c2ccccc12)C(=O)N[C@@H](CC(N)=O)C(=O)N[C@@H](CC(=O)O)C(=O)N[C@@H]1C(=O)NCC(=O)N[C@@H](CCCN)C(=O)N[C@@H](CC(N)=O)C(=O)N[C@H](C)C(=O)N[C@@H](CC(N)=O)C(=O)NCC(=O)N[C@H](CO)C(=O)N[C@@H]([C@@H](C)CC(=O)O)C(=O)N[C@@H](CC(=O)c2ccccc2N)C(=O)O[C@@H]1C" .
A. ≥ 32 µg/mL
